# Measured On: T1, cynomolgus TIGIT over-expressed on CHO-K1 cells (cynomolgus, UniProt A0A7N9I9V4 89-312)
# T1 construct: whole, on cells; also called CHO-K1/cynomolgus TIGIT cells
# Measurement Notes: FACS, CHO-K1 cells over-expressing cynomolgus TIGIT
I'd be grateful if you could share measured pEC50 for these entries.
Answers are plain numbers, as −log10 of the molar value.

The examples below pair each entry with its known result.
- Binder: "100C4E7D11VH1_VL1 (antibody, V domains shown, Humanized antibody, variable domains fused with the constant region of human IgG1; also called 100C4VH1_VL1) VH: EVQLVESGGGLVKPGGSLRLSCAASGFTFSFYTMSWVRQAPGKGLEWVSTISSGGGSTYYSDSVKGRFTISRDNAKNSLYLQMNSLRAEDTAVYYCARSLPVDYWGQGTTVTVSS VL: EIVLTQSPGTLSLSPGERATLSCTASSSVSSTYLHWYQQKPGQAPRLLIYSTSNLASGIPDRFSGSGSGTDFTLTISRLEPEDFAVYYCHLYHHSPYTFGGGTKVEIK"
  Reported Endpoint: "pEC50"
  Test Result: 8.55
- Binder: "64G1E9B4VH1.M1_VL1.M1 (antibody, human IgG1, V domains shown, Humanized antibody, variable domains fused with the constant region of human IgG1; also called 64G1VH1.M1_VL1.M1) VH: EVQLVQSGAEVKKPGSSVKVSCKASGYTFTEHVIHWVRQAPGQGLEWMGGFNPNHGGTIYNQIFRGRVTITADKSTSTAYMELSSLRSEDTAVYYCARAAKLLFAMDYWGQGTTVTVSS VL: DIQMTQSPSSLSASVGDRVTITCRASQHVSNAVVWYQQKPGKAPKLLIYSPSYRFTGVPSRFSGSGSGTDFTLTISSLQPEDFATYYCQQHYSTPWTFGGGTKVEIK"
  Reported Endpoint: "pEC50"
  Test Result: 9.04
- Binder: "64G1E9B4 chimeric (antibody, V domains shown, also called 64G1 Chimeric) VH: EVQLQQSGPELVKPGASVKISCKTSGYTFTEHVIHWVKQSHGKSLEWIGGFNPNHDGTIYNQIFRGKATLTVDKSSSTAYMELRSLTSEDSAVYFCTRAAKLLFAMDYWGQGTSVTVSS VL: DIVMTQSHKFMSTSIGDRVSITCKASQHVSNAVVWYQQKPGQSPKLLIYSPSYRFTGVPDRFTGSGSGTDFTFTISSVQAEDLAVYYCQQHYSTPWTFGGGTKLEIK"
  Reported Endpoint: "pEC50"
  Test Result: 8.88

Please report the recorded pEC50 for 64G1E9B4VH1_VL1.M1 (antibody, human IgG1, V domains shown, Humanized antibody, variable domains fused with the constant region of human IgG1; also called 64G1VH1_VL1.M1) VH: EVQLVQSGAEVKKPGSSVKVSCKASGYTFTEHVIHWVRQAPGQGLEWMGGFNPNHDGTIYNQIFRGRVTITADKSTSTAYMELSSLRSEDTAVYYCARAAKLLFAMDYWGQGTTVTVSS VL: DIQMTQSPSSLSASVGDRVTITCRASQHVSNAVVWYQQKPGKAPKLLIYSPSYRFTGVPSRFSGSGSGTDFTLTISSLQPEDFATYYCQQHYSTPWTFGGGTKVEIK . 8.78
